Below, each entry is listed alongside its reported IC50.
target: CDK2-NanoLuc fusion with CCNE1 in 293T or 293 cells (Homo sapiens, UniProt P24941); construct: host or cells: 293T (ATCC CRL-3216) or 293 (ATCC CRL-1573); assay: NanoBRET Target Engagement (TE) Intracellular Kinase Assay, CDK2/CCNE1; format: cell-based; conditions: NanoBRET TE intracellular kinase assay, 2-hour incubation, read-out: NanoBRET-CDK2/E1 IC50
In your response, the unit should come after the numeric value.

Recorded results for 3 molecules are shown here.
INPUT: Which IC50 value belongs to CC(C)NC(=O)O[C@@H]1CC[C@H](c2cc(NC(=O)c3cc(-c4cnccc4C=O)nn3C)n[nH]2)C1 [Compound 44, trifluoroacetic acid] ?
OUTPUT: 6.37 nM

INPUT: Entry under review: COc1cc(O)c(C=O)c(OCC(=O)Nc2cc([C@H]3CC[C@@H](OC(=O)NC4(C#N)CCC4)C3)[nH]n2)c1 [Compound 148] . Reported IC50?
OUTPUT: 6.97 nM

INPUT: I am curious: what IC50 value has been reported for CCOc1cc(O)c(C=O)c(OCC(=O)Nc2cc([C@H]3CC[C@@H](OC(=O)NC4(C)CC4)C3)[nH]n2)c1 [Compound 115] ?
OUTPUT: 1.94 nM

New cases:
INPUT: Item under review: COc1cc(O)c(C=O)c(OCC(=O)Nc2cc([C@H]3CC[C@@H](OC(=O)NCCC#N)C3)[nH]n2)c1 [Compound 208] . Reported IC50?
OUTPUT: 9.87 nM

INPUT: GET /values?readout=IC50&item= CC1(NC(=O)O[C@@H]2CC[C@H](c3cc(Nc4nccc5c(C=O)c(O)ccc45)n[nH]3)C2)CC1 [Compound 261]
OUTPUT: 4.7 nM

INPUT: Requested read-out: IC50. Entry: O=Cc1c(O)cc(F)cc1OCC(=O)Nc1cc([C@H]2CC[C@@H](OC(=O)N3C4COCC3C4)C2)[nH]n1 [Compound 192]
OUTPUT: 24 nM

INPUT: Would you mind telling me what IC50 value was observed for COc1cc(OC)c(C=O)c(OCC(=O)Nc2cc([C@H]3CC[C@@H](OC(=O)N4CCC4(C)C)C3)[nH]n2)c1 [Compound 227] ?
OUTPUT: 1.73 nM

INPUT: Fill blank: measured IC50 of the molecule COc1cc(O)c(C=O)c(OCC(=O)Nc2cc([C@H]3CC[C@@H](OC(=O)N4C5CCC4CC5)C3)[nH]n2)c1 [Compound 229] is ____.
OUTPUT: 1.75 nM

====

system: Phospho-Rb Ser807/811 in OVCAR3 cells; assay: OVCAR3 Phospho-Rb Ser807/811 HTRF assay; assay type: cell-based; conditions: Homo sapiens, OVCAR-3, 1 h, OVCAR3 cells, Phospho-Rb Ser807/811 HTRF, 1 hour incubation; read-out: pRb-OVCAR3 IC50
Catalogue of pIC50 values
pIC50 here: minus log base 10 of the concentration, concentration in moles per litre.

Solved cases below.
INPUT: So what's the measured pIC50 for this one? COc1cc(O)c(C=O)c(OCC(=O)Nc2cc([C@H]3CC[C@@H](OC(=O)NC4(CC#N)CC4)C3)[nH]n2)c1 [Compound 146]
OUTPUT: 7.39

INPUT: Could you tell me which pIC50 is on file for Cc1cc(O)c(C=O)c(OCC(=O)Nc2cc([C@H]3CC[C@@H](OC(=O)N4C5COCC4C5)C3)[nH]n2)c1 [Compound 199] ?
OUTPUT: 7.23

Let's switch to this compound now.
INPUT: Suppose we examine the compound CCOc1cc(O)c(C=O)c(OCC(=O)Nc2cc([C@H]3CC[C@@H](OC(=O)NC4(C)CC4)C3)[nH]n2)c1 [Compound 115] ; what pIC50 value has been reported?
OUTPUT: 7.79

====

Items are presented alongside their recorded IC50.
Target: CDK2-NanoLuc fusion with CCNE1 in 293T or 293 cells (Homo sapiens)
Construct: host or cells: 293T (ATCC CRL-3216) or 293 (ATCC CRL-1573)
Assay: NanoBRET Target Engagement (TE) Intracellular Kinase Assay, CDK2/CCNE1
Format: cell-based
Conditions: NanoBRET TE intracellular kinase assay, 2-hour incubation, read-out: NanoBRET-CDK2/E1 IC50
Protocol: Inhibitory effects of compounds were measured in NanoBRET TE Intracellular Kinase Assay. […] NanoBRET signals (donor emission wavelength at 450 nm, acceptor emission wavelength at 610 nm) were measured using Envision plate reader (PerkinElmer). NanoBRET ratio was calculated by: BRET Ratio=raw signal for acceptor/raw signal for donor. […]
Number only, in nM; omit the unit.

# count of solved cases: 3
INPUT: GET /values?readout=IC50&item= `CC(C)NC(=O)O[C@@H]1CC[C@H](c2cc(NC(=O)CCCc3cccc(O)c3C=O)n[nH]2)C1`
OUTPUT: 11.1

INPUT: For the molecule shown here, `COc1cc(O)c(C=O)c(OCC(=O)Nc2cc([C@H]3CC[C@@H](OC(=O)N4CC(C#N)C4)C3)[nH]n2)c1` , give the reported IC50.
OUTPUT: 13.1

INPUT: Fill in the blank: the reported IC50 of `CC(C)NC(=O)O[C@@H]1CC[C@H](c2cc(NC(=O)c3cc(C(=O)Nc4cccc(O)c4C=O)nn3C)n[nH]2)C1` is ____.
OUTPUT: 10.5

Further cases:
INPUT: For `COc1cc(O)c(C=O)c(OCC(=O)Nc2cc([C@H]3CC[C@@H](OC(=O)NN(C)C)C3)[nH]n2)c1` , what is its reported IC50?
OUTPUT: 7.35

INPUT: Requested field: IC50. Item: `CC(=O)Nc1ccc(C(=O)Nc2cc([C@H]3CC[C@@H](OC(=O)NC(C)C)C3)[nH]n2)cc1C=O`
OUTPUT: 10.6

INPUT: Look at this molecule and give its reported IC50. `CCn1nc(-c2cccc(O)c2C=O)cc1C(=O)Nc1cc([C@H]2CC[C@@H](OC(=O)NC(C)C)C2)[nH]n1`
OUTPUT: 6.5

INPUT: Given `Cc1nc(-c2cccc(O)c2C=O)sc1C(=O)Nc1cc([C@H]2CC[C@@H](OC(=O)NC(C)C)C2)[nH]n1` , state its recorded IC50.
OUTPUT: 9.39

====

target: CDK1-NanoLuc fusion with CCNB1 in 293T or 293 cells (Homo sapiens, UniProt P06493); construct: host or cells: 293T (ATCC CRL-3216) or 293 (ATCC CRL-1573); assay: NanoBRET Target Engagement (TE) Intracellular Kinase Assay, CDK1/CCNB1; type: cell-based; settings: NanoBRET TE intracellular kinase assay, 2-hour incubation, read-out: NanoBRET-CDK1/B1 IC50
Sequence (P06493 whole entry, the tested form may be a part): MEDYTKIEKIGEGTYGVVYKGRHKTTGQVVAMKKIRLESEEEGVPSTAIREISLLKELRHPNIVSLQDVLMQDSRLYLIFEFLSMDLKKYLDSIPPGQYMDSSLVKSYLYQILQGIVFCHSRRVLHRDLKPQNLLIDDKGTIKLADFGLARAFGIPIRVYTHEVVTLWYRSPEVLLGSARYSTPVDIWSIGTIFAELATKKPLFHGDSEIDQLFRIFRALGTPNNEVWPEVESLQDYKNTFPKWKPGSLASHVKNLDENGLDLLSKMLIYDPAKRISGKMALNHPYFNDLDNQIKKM
Sequence (P14635 whole entry partner, the tested form may be a part): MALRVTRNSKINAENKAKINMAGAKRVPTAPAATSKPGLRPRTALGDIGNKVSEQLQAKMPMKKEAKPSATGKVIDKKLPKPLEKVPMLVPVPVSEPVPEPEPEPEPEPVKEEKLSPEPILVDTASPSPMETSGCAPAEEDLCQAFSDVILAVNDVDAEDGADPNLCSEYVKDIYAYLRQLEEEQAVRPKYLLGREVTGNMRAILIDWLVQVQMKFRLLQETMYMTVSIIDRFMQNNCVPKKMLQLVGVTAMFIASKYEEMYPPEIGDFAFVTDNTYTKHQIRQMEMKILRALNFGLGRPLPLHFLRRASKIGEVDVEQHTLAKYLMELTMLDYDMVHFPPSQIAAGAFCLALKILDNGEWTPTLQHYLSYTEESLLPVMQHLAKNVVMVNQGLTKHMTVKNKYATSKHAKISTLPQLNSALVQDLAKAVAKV
pIC50: −log10 of the molar value.
# if value of pIC50 reaches 7, tag true; if it stays below, tag false

Example entries begin here.
INPUT: Would you say `CC(C)NC(=O)O[C@@H]1CC[C@H](c2cc(NC(=O)c3ccc(C=O)c4[nH]ncc34)n[nH]2)C1` shows pIC50 at minimum 7?
OUTPUT: false

INPUT: Could you tell me if the measured pIC50 of `COc1cc(O)c(C=O)c(OCC(=O)Nc2cc([C@H]3CC[C@@H](OC(=O)N4C[C@H]5C[C@@H]4CO5)C3)[nH]n2)c1` reaches 7 or more?
OUTPUT: true

INPUT: Dear colleague, could you confirm whether `CC(C)NC(=O)O[C@@H]1CC[C@H](c2cc(NC(=O)c3cc(-c4cnccc4C=O)nn3C)n[nH]2)C1` has pIC50 at or above 7?
OUTPUT: false

INPUT: Reported pIC50 at or above 7? `COc1cc(O)c(C=O)c(OCC(=O)Nc2cc([C@H]3CC[C@@H](OC(=O)NC45CC(C4)C5)C3)[nH]n2)c1`
OUTPUT: true

INPUT: Decide: is the reported value of pIC50 for `COCc1cc(O)c(C=O)c(-c2cc(C(=O)Nc3cc([C@H]4CC[C@@H](OC(=O)NC(C)C)C4)[nH]n3)n(C)n2)c1` equal to or greater than 7?
OUTPUT: true

INPUT: Could you verify whether the entry `O=Cc1c(O)cccc1OCC(=O)Nc1cc([C@H]2CC[C@@H](OC(=O)NC3CCCC3)C2)[nH]n1` shows pIC50 of no less than 7?
OUTPUT: true

INPUT: Textbook exercise: given the entry `CC(C)NC(=O)O[C@@H]1CC[C@H](c2cc(NC(=O)c3ccc(C=O)c(O)c3)n[nH]2)C1` , state whether its pIC50 is greater than or equal to 7.
OUTPUT: true

INPUT: Does the reported pIC50 for `O=Cc1c(O)cccc1OCC(=O)Nc1cc([C@H]2CC[C@@H](OC(=O)N3CCCC3)C2)[nH]n1` fall at or above the 7 mark?
OUTPUT: true

Next:
INPUT: Hi, just wondering whether CC(C)NC(=O)O[C@@H]1CC[C@H](c2cc(NC(=O)C3CCN(c4cccc(O)c4C=O)C3)n[nH]2)C1 (some centres unmarked) shows pIC50 of 7 or higher.
OUTPUT: false
